# soluble fraction (log2) values compiled below
Test: soluble fraction after stress (log2 fold change); higher = more stays soluble; pooled small domains, quantitative proteomics;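 further: 20 min heating vs room temperature control held 20 min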
Settings: stress: 75 degC
# respond with the number and nothing more

Ask | Looking for the measured soluble fraction (log2) of HMRILGIDPGYAITGYSIIDYVGNKFKLIDSGAVLTKAGVSFPLRLTKIYDDLSMIIDEYKPDA , can you help?
Reply | 0.0296

Ask | Continue with HMLPVLEIGTMIRIIRQPHFGTIARVVALPEELTKVESETLVRILDAEFDDGTRVRIPRANVEVIE
Reply | -3.04

Ask | Would you mind doing HMGVKTDKYYYQMATETRVNKHYGLSNQYIATLISEYPRSPLIPNASILSKKNNADLALIDQSINQR as well?
Reply | -0.515

Ask | Quick one: HMTVPAGIVLSSIRQDGDVLHIRGTAQSTERLNFFRNSFSASWGSPAQNGKRKADPVTGLVDFTISLK
Reply | -0.758

Ask | Please answer likewise for HMNYYDLLGIPKSATKQQIRKAYRTKAKEFHPDVNGPFNSHMHFLLLKQAYETLMDANMRHVYDMALIS
Reply | -2.4

Source of measurements: the domain aggregation screens of Martell et al. (2025)
